As an illustration, consider measured IC50 for molecules on Tyrosine-protein phosphatase non-receptor type 1 (Homo sapiens, UniProt P18031).
Sequence (P18031 whole entry): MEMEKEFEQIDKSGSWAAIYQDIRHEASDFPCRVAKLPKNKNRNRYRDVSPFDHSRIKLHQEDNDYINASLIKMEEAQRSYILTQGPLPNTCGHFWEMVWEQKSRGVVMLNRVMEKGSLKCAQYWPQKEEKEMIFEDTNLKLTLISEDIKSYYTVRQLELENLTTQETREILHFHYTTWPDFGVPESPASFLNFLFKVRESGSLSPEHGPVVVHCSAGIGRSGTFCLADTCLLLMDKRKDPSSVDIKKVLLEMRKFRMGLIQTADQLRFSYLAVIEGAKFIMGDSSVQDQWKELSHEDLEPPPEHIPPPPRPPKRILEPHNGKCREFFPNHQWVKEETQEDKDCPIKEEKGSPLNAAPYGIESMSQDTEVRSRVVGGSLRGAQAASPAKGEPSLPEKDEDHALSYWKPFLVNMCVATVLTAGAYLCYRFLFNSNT
Enter your answer as a number in µM; do not include the unit.

COc1cc(C(=O)c2c(Br)c(Br)c(OC)c(OC)c2Br)c(Br)c(Br)c1OC | 3.82
BrCc1cc2cc(Br)c(NBr)cc2c(Br)c1Br | 127

We now examine a further molecule.
[ask] Could you tell me which IC50 is on file for BrCc1cc(Br)c2cc(NBr)c(Br)cc2c1Br ?
[reply] 118
